# TEST_TARGET: ATP phosphoribosyltransferase (Mycobacterium tuberculosis (strain ATCC 25618 / H37Rv))
# Sequence (P9WMN1 whole entry): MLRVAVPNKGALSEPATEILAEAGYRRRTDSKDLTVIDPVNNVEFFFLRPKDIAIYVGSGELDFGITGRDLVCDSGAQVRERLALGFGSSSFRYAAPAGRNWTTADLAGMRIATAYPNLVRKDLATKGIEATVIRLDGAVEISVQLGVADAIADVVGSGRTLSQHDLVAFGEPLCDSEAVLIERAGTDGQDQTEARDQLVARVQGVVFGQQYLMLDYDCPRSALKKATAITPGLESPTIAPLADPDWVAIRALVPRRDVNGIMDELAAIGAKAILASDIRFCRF
# PROTOCOL_SUMMARY: Enzyme Inhibition Assay
# ASSAY_SETUP: pH 8.5; 22 °C
# IC50 per entry
MEASURED_PARAMETER: IC50 (µM)

INSERT INTO assay_data (compound, measured_parameter, unit_text, experimental_result) VALUES
  ('COc1ccc(COC(=O)C2=C(C)N=C3CC(c4cccs4)CC(=O)C3C2c2cccs2)cc1 (configuration not stated)', 'IC50', 'µM', 10),
  ('O=C(CSc1nnc(-c2ccccc2)c(-c2ccccc2)n1)Nc1nccs1', 'IC50', 'µM', 4);
